Attribution: patent US10471046B2

Test system: S. aureus
Experiment: Minimum inhibitory concentrations (MICs) for S. aureus of exemplary compounds (Table 2)
Type: cell-based
Conditions: Staphylococcus aureus, minimum inhibitory concentrations for S. aureus; read-out: MICs
From the text: Exemplary compounds in accordance with the invention are listed in Table 2 with their minimum inhibitory concentrations (MICs) (μg/mL) for S. aureus: Furthermore, the antibiotic compounds can be assayed for anti-proliferative or anti-infective properties on a cellular level. For example, where the target organism is a microorganism, the activity of compounds of interest can be assayed by growing the microorganisms of interest in media either containing or lacking the compound. […]
attribute-measured: MIC (µg/mL)
Give the number; µg/mL is assumed, so skip it.

Solved cases (8 shown):
q: Tell me reported MIC for CC(=O)NC[C@H]1CN(c2ccc(-c3ccc(Cn4cc(CO)nn4)cc3)c(F)c2)C(=O)O1 , tested with S. aureus.
a: 1

q: Form field - read-out: MIC; system: S. aureus; submitted item: CC(=O)NC[C@H]1CN(c2ccc(-c3ccc(Cn4ccnn4)cc3)c(F)c2)C(=O)O1
a: 0.25

q: Write down the reported MIC of CC(=O)NC[C@H]1CN(c2ccc(-c3ccc(CNCc4ncon4)cc3)c(F)c2)C(=O)O1 , test system: S. aureus.
a: 0.5

q: Quick check: MIC on S. aureus, item CC(=O)NC[C@H]1CN(c2ccc(-c3ccc(Cn4cnc(CO)c4)cc3)c(F)c2)C(=O)O1 ?
a: 2

q: Hello, I am looking for reported MIC with S. aureus for CC(=O)NC[C@H]1CN(c2ccc(-c3ccc(C(=O)NCc4ncon4)cc3)c(F)c2)C(=O)O1 . Could you help?
a: 0.5

q: For S. aureus, provide MIC of CC(=O)NC[C@H]1CN(c2ccc(-c3ccc(CCNCc4ccncc4)cc3)c(F)c2)C(=O)O1 please.
a: 1

q: Any idea what MIC came out for CCC(O)Cc1cn(CC(=O)NCc2ccc(-c3ccc(N4C[C@H](CNC(C)=O)OC4=O)cc3F)cc2)nn1 (stereo partly drawn) on S. aureus?
a: 4

q: Write down the reported MIC of CC(=O)NC[C@H]1CN(c2ccc(-c3ccc(CNC(=O)c4csc(NCc5ccc(Cl)cc5)n4)cc3)c(F)c2)C(=O)O1 , test system: S. aureus.
a: 2

Further cases:
q: Test system S. aureus; read-out MIC; what value for CC(=O)NC[C@H]1CN(c2ccc(-c3ccc(C(=O)NCc4ccncc4)cc3)c(F)c2)C(=O)O1 ?
a: 2

q: Identify the measured MIC of CC(=O)NC[C@H]1CN(c2ccc(-c3ccc(CNC(=O)Nc4ccncc4)cc3)c(F)c2)C(=O)O1 for S. aureus.
a: 2

q: Provide value of MIC for this record tested with S. aureus: CC(=O)NC[C@H]1CN(c2ccc(-c3ccc(CN4CC(CF)OC4=O)cc3)c(F)c2)C(=O)O1 (mixture of isomers)
a: 0.5

q: Write down the reported MIC of CC(=O)NC[C@H]1CN(c2ccc(-c3ccc(CNCc4ccco4)cc3)c(F)c2)C(=O)O1 , test system: S. aureus.
a: 1

q: Requested read-out MIC, target or system S. aureus, entry CC(=O)NC[C@H]1CN(c2ccc(-c3ccc(CN(Cc4nnnn4C)C(=O)OC(C)(C)C)cc3)c(F)c2)C(=O)O1
a: 1

q: Return MIC measured with S. aureus given this compound: CCN(Cc1ccncc1)Cc1ccc(-c2ccc(N3C[C@H](CNC(C)=O)OC3=O)cc2F)cc1
a: 2

q: Find the measured MIC: item CCc1ccc(CNCc2ccc(-c3ccc(N4C[C@H](CNC(C)=O)OC4=O)cc3F)cc2)s1 , target or system S. aureus.
a: 2
